Method Notes: In vitro cytotoxicity evaluation
Type: cell-based
Measurement Parameters: human; LO2 cells, 2 μg/mL; read-out: Cell Viability (%)
Description: A key component in the development of antimicrobial agents for clinical application is the assessment of their potential toxicity to mammalian cells. To assess the cytotoxic impact, compound 9h was chosen to undergo in vitro testing for its cytotoxic effects on LO2 cells.
Measured Metric: viability at 2 μg/mL (%)
Unit % implied. Number only.

Query: Find the recorded viability at 2 μg/mL belonging to CC(=O)c1c(OCCCNCCCN2CCN(C)CC2)c2c(c3c1OC(C)(CCC=C(C)C)C=C3)OC(C)(CCC=C(C)C)C=C2 (stereo not shown) and report it.
Response: 88.8
